# Tested on: SNB-78 CNS
# Test Summary: NCI tumour cell line growth inhibition, 48 h
Value Type: TGI

Answered cases to consult:
Compound: COc1ccc(-c2c(C3=NCCCN3)nnn2-c2ccccc2)cc1
Result: > 100 µM
--
Compound: COc1cc(/C=C/c2csnn2)cc(OC)c1OC
Result: > 100 µM
--
Compound: O=C1C2C3C=CC(C2C(=O)N1CO)C1C2C(=O)N(CO)C(=O)C2C31 (centres undefined)
Result: > 100 µM
--
Compound: COc1ccc2c(C(=O)O)cc3ccccc3c2c1OC
Result: 33.4 µM
--
Compound: O=C1NC(=O)C2C(=O)NC(=O)C1C2Cc1ccco1 (centres undefined)
Result: > 100 µM

Q: TGI lookup needed for CC(=O)OC1COC(N2CCc3cc([N+](=O)[O-])ccc32)C(OC(C)=O)C1OC(C)=O (centres undefined) , thanks.
Ans: > 100 µM

Q: # lookup: TGI of CCOC(=O)/C(=C/c1ccccn1)C(=O)c1ccccc1
Ans: 38.9 µM

Origin of values: PubChem BioAssay (NCI)
